# TARGET_SYSTEM: CIB1 and αIIb interaction (CIB1-GST : F-αIIb peptide) (Homo sapiens, UniProt Q99828)
# Construct: made in house; host or cells: BL-21 plus RIL cells (E. coli)
# PROTOCOL_DESCRIPTION: FP assay, 1536-well qHTS format (primary and confirmatory screen)
# Format: binding
# MEASUREMENT_PARAMETERS: confirmatory screen, qHTS curve class; negative sign = inhibitory curve
MEASURED_PROPERTY: CONFIRMATORY SCREEN Curve Class
Kindly provide the number alone.

Problem: I have this compound here, Cc1ccc(S(=O)(=O)Nc2cnccc2C(=O)Nc2nc(-c3ccccc3)cs2)cc1.O=C(O)C(F)(F)F [NCGC00262386-01] , and I need its recorded CONFIRMATORY SCREEN Curve Class.
Result: -1.2

Problem: I have this compound here, S=C(SSC(=S)N1CCCCC1)N1CCCCC1 [NCGC00181776-02, dipentamethylenethiuram disulfide] , and I need its recorded CONFIRMATORY SCREEN Curve Class.
Result: -1.4

Problem: I have this compound here, O=C(Cc1ccc(Cl)c(Cl)c1)Nc1ccc(S(=O)(=O)Nc2ccon2)cc1.O=C(O)C(F)(F)F [NCGC00244858-03] , and I need its recorded CONFIRMATORY SCREEN Curve Class.
Result: -1.4

Problem: I have this compound here, CC(O)c1ccc(-c2ccc3ncnc(NCc4nccs4)c3c2)o1.O=C(O)C(F)(F)F (stereo not shown) [NCGC00238382-01] , and I need its recorded CONFIRMATORY SCREEN Curve Class.
Result: -3

---

I'd be grateful if you could share measured Efficacy (%) for these entries.
# TARGET_SYSTEM: CIB1 and αIIb interaction (CIB1-GST : F-αIIb peptide) (Homo sapiens, UniProt Q99828)
# Construct: made in house; host or cells: BL-21 plus RIL cells (E. coli)
# Sequence (Q99828 1-191): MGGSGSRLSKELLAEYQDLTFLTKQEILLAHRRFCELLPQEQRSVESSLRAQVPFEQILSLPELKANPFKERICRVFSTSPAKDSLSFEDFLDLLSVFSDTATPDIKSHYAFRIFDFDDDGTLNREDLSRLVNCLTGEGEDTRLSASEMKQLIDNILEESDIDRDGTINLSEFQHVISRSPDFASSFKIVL
# PROTOCOL_DESCRIPTION: FP assay, 1536-well qHTS format (primary and confirmatory screen)
# Format: binding
# MEASUREMENT_PARAMETERS: qHTS FP screen hits, Table S2; negative = inhibition
Expressed in %, but write only the number.

Problem: I have this molecule here, CN1CCN([C@H]2CC[C@H](n3cc(-c4ccc(Oc5ccccc5)cc4)c4c(N)ncnc43)CC2)CC1.Cl , and I need its recorded Efficacy (%).
Result: -56

Problem: I have this molecule here, O=C(O)C(F)(F)F.O=S(=O)(NCc1nccs1)c1ccc(Nc2nc(-c3ccccc3)cs2)cc1 , and I need its recorded Efficacy (%).
Result: -60

Problem: I have this molecule here, CN(C)CCCn1cc(C2=C(c3c[nH]c4ccccc34)C(=O)NC2=O)c2ccccc21 , and I need its recorded Efficacy (%).
Result: -53

Problem: I have this molecule here, Nc1ccc(O)c([N+](=O)[O-])c1 , and I need its recorded Efficacy (%).
Result: -59

Problem: I have this molecule here, Cc1coc2c1C(=O)C(=O)c1c-2ccc2c1CCCC2(C)C , and I need its recorded Efficacy (%).
Result: -65

Problem: I have this molecule here, CC(=O)NC(c1cccs1)c1cc(Br)c2cccnc2c1O (stereo not shown) , and I need its recorded Efficacy (%).
Result: -40

Problem: I have this molecule here, Cc1ccc(C(=O)c2no[n+]([O-])c2C(=O)c2ccc(C)cc2)cc1.O=C(O)C(F)(F)F , and I need its recorded Efficacy (%).
Result: -47

Problem: I have this molecule here, CC(=O)Nc1sc2c(c1-c1nc3ccccc3s1)CNC2.O=C(O)C(F)(F)F , and I need its recorded Efficacy (%).
Result: -28

Problem: I have this molecule here, COc1ccc(CNC(=O)c2nc(S(=O)(=O)Cc3ccccc3)ncc2Cl)cc1.O=C(O)C(F)(F)F , and I need its recorded Efficacy (%).
Result: -38

Problem: I have this molecule here, CNc1ccc(C(=O)Oc2cc(ON=[N+]([O-])N(C)C)c([N+](=O)[O-])cc2[N+](=O)[O-])cc1 , and I need its recorded Efficacy (%).
Result: -30

Problem: I have this molecule here, CC(O)c1ccc(-c2ccc3ncnc(NCc4nccs4)c3c2)o1.O=C(O)C(F)(F)F (stereo not shown) , and I need its recorded Efficacy (%).
Result: -63

Problem: I have this molecule here, CNc1ccc([N+](=O)[O-])c(Nc2ccc3[nH]ncc3c2)n1 , and I need its recorded Efficacy (%).
Result: -48

Problem: I have this molecule here, O=C(O)C(F)(F)F.O=C1Nc2ccccc2/C1=N/NC(=S)Nc1ccc(C(=O)O)cc1 , and I need its recorded Efficacy (%).
Result: -32

Problem: I have this molecule here, Cc1cc(NS(=O)(=O)c2ccc(NC(=O)Cc3ccc(F)c(Cl)c3)cc2)no1.O=C(O)C(F)(F)F , and I need its recorded Efficacy (%).
Result: -25

Problem: I have this molecule here, O=C(O)C(F)(F)F.O=C(O)c1csc(-n2nc(-c3ccc(F)c(F)c3)c3cccc(O)c32)n1 , and I need its recorded Efficacy (%).
Result: -22

Problem: I have this molecule here, CN(C)C(=S)SSC(=S)N(C)C , and I need its recorded Efficacy (%).
Result: -71

---

# TARGET_SYSTEM: CIB1 and αIIb interaction (CIB1-GST : F-αIIb peptide) (Homo sapiens, UniProt Q99828)
# Construct: made in house; host or cells: BL-21 plus RIL cells (E. coli)
# PROTOCOL_DESCRIPTION: FP assay, 1536-well qHTS format (primary and confirmatory screen)
# Assay type: binding
# MEASUREMENT_PARAMETERS: confirmatory screen, qHTS curve class; negative sign = inhibitory curve
I'd be grateful if you could share measured Curve Class (confirmatory screen) for these entries.
Kindly provide the number alone.

Problem: Can you look up Curve Class (confirmatory screen) on CIB1 and αIIb interaction (CIB1-GST : F-αIIb peptide) (Homo sapiens, UniProt Q99828) for CC1=C(C(=O)Nc2cccc(C(=O)O)c2)C(c2ccccc2Cl)N=C(Nc2nc3ccccc3o2)N1.O=C(O)C(F)(F)F (stereo not shown) ?
Result: -2.4

Problem: Can you look up Curve Class (confirmatory screen) on CIB1 and αIIb interaction (CIB1-GST : F-αIIb peptide) (Homo sapiens, UniProt Q99828) for CC1(C)OB(c2ccc(O)c3ncc(N4CCNCC4)cc23)OC1(C)C.O=C(O)C(F)(F)F ?
Result: -2.1

Problem: Can you look up Curve Class (confirmatory screen) on CIB1 and αIIb interaction (CIB1-GST : F-αIIb peptide) (Homo sapiens, UniProt Q99828) for Cc1ccc2nc3sc(C(=O)NCc4ccco4)cc3cc2c1.O=C(O)C(F)(F)F ?
Result: -1.2

Problem: Can you look up Curve Class (confirmatory screen) on CIB1 and αIIb interaction (CIB1-GST : F-αIIb peptide) (Homo sapiens, UniProt Q99828) for CCOC(=O)c1ccc(O)c2ncc(N3CCC(C(=N)N)CC3)cc12.O=C(O)C(F)(F)F ?
Result: -1.1

Problem: Can you look up Curve Class (confirmatory screen) on CIB1 and αIIb interaction (CIB1-GST : F-αIIb peptide) (Homo sapiens, UniProt Q99828) for COc1ccccc1C(=O)/C=C1/C(=O)Nc2ccc(C)cc21.O=C(O)C(F)(F)F ?
Result: -1.4

Problem: Can you look up Curve Class (confirmatory screen) on CIB1 and αIIb interaction (CIB1-GST : F-αIIb peptide) (Homo sapiens, UniProt Q99828) for O=C(O)C(F)(F)F.O=C(c1ccc(F)cc1)c1no[n+]([O-])c1C(=O)c1ccc(F)cc1 ?
Result: -1.2

Problem: Can you look up Curve Class (confirmatory screen) on CIB1 and αIIb interaction (CIB1-GST : F-αIIb peptide) (Homo sapiens, UniProt Q99828) for CCOC(=O)c1nn(-c2ccc(OC)cc2)c(=O)c2c(N)scc12 ?
Result: -2.4

Problem: Can you look up Curve Class (confirmatory screen) on CIB1 and αIIb interaction (CIB1-GST : F-αIIb peptide) (Homo sapiens, UniProt Q99828) for CC1=C(O)C(=O)C=C2C1=CC=C1[C@@]2(C)CC[C@@]2(C)[C@@H]3C[C@](C)(C(=O)O)CC[C@]3(C)CC[C@]12C ?
Result: -1.1

Problem: Can you look up Curve Class (confirmatory screen) on CIB1 and αIIb interaction (CIB1-GST : F-αIIb peptide) (Homo sapiens, UniProt Q99828) for Oc1ccc(-c2nnn[nH]2)c2cccnc12 ?
Result: -3

Problem: Can you look up Curve Class (confirmatory screen) on CIB1 and αIIb interaction (CIB1-GST : F-αIIb peptide) (Homo sapiens, UniProt Q99828) for C=C1C(OC(=O)/C(C)=C\C)[C@@]23CCC4[C@@](C)(CCC[C@@]4(C)C(=O)O)C2CC[C@H]1C3OC(C)=O (stereo partly shown) ?
Result: -2.2

Problem: Can you look up Curve Class (confirmatory screen) on CIB1 and αIIb interaction (CIB1-GST : F-αIIb peptide) (Homo sapiens, UniProt Q99828) for O=C(O)c1cc(O)c2c(c1)C(=O)c1cccc(O)c1C2=O ?
Result: -1.2

Problem: Can you look up Curve Class (confirmatory screen) on CIB1 and αIIb interaction (CIB1-GST : F-αIIb peptide) (Homo sapiens, UniProt Q99828) for O=C1NC(c2ccc(N3CCOCC3)cc2)(c2ccsc2)CC(O)=C1Sc1ccccc1Cl (stereo not shown) ?
Result: -2.4

Problem: Can you look up Curve Class (confirmatory screen) on CIB1 and αIIb interaction (CIB1-GST : F-αIIb peptide) (Homo sapiens, UniProt Q99828) for O=C(O)c1cnn(-c2nc3cc(Cl)c(OC(F)(F)F)cc3[nH]2)c1 ?
Result: -2.4

Problem: Can you look up Curve Class (confirmatory screen) on CIB1 and αIIb interaction (CIB1-GST : F-αIIb peptide) (Homo sapiens, UniProt Q99828) for CN(C(=O)CN(CCO)CC(=O)N(C)C(C)(C)Cc1ccccc1)C(C)(C)Cc1ccccc1 ?
Result: -3

Problem: Can you look up Curve Class (confirmatory screen) on CIB1 and αIIb interaction (CIB1-GST : F-αIIb peptide) (Homo sapiens, UniProt Q99828) for CCN1C(=O)c2ccccc2[S+]([O-])c2ccc(C(=O)NCc3cccc(F)c3)cc21 (stereo not shown) ?
Result: -2.2

Problem: Can you look up Curve Class (confirmatory screen) on CIB1 and αIIb interaction (CIB1-GST : F-αIIb peptide) (Homo sapiens, UniProt Q99828) for N#Cc1ccc(Nc2nc(-c3ccc(O)cc3O)cs2)cc1C(F)(F)F ?
Result: -2.2

The origin of these recorded values is paper PMC11249646.
